target: rat mGluR5 (Rattus norvegicus, UniProt P31424); construct: expressed in transfected cells; host or cells: HEK (human embryonic kidney) cells; assay: Potentiation of glutamate response, calcium fluorescence (FDSS) in HEK cells transfected with rat mGluR5; type: cell-based; conditions: maximum extent of potentiation; normalized to the maximal response to agonist; in % (unit assumed)
Sequence (P31424 21-1203): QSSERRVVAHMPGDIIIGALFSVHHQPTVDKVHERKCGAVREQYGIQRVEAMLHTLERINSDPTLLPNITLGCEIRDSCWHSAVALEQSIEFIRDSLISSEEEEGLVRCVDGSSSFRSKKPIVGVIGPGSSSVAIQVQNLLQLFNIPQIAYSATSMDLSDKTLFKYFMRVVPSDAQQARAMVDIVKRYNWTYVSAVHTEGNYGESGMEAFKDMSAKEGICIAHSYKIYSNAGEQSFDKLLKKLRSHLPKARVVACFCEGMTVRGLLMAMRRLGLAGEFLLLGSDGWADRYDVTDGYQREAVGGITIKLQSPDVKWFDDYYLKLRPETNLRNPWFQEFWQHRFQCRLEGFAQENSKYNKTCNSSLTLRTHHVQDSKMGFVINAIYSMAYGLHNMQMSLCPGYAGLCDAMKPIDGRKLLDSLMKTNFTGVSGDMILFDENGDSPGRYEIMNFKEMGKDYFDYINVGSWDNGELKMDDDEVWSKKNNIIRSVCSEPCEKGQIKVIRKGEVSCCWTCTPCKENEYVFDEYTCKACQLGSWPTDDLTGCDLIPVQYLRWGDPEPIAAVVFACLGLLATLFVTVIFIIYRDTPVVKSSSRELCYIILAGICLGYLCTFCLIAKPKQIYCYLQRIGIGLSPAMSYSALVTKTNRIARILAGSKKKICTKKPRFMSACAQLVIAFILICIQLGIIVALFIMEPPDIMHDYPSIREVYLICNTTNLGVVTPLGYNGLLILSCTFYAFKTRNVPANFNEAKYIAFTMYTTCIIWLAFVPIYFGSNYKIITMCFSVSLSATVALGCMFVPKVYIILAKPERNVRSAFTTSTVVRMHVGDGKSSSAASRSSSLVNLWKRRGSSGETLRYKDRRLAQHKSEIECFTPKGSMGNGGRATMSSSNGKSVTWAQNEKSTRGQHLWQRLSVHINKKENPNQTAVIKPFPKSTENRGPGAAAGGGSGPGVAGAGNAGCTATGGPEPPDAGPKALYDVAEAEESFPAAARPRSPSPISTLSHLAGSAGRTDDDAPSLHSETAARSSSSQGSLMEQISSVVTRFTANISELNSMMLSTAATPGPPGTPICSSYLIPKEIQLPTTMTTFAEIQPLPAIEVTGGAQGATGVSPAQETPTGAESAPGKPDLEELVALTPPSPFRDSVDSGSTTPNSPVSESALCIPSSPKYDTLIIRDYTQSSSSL
Label t when mGluR5 Potentiator Max is at or above 80; otherwise label f.

Completed entries (count: 5):
compound	label value
CCOC(=O)C(CC)N1CCc2cc(C#Cc3ccccc3)ccc2C1=O (stereo not shown)	t
CN(C)CCNC(=O)CN1CCc2cc(C#Cc3ccccc3)ccc2C1=O	f
Cc1cc(C#Cc2ccc3c(c2)CCNC3=O)ccc1F	f
O=C1c2ccc(C#Cc3ccccc3)cc2CCN1CC1CCC1	t
O=C(CN1CCc2cc(C#Cc3ccccc3)ccc2C1=O)NCCN1CCCCC1	f

q: Exam item: decide whether the reported mGluR5 Potentiator Max for `O=C1NCCc2cc(C#Cc3ccccc3Cl)ccc21` is at least 80.
a: f

q: One more compound: `O=C(CN1CCc2cc(C#Cc3ccccc3)ccc2C1=O)N1CCC(O)CC1`
a: f

q: One more compound: `O=C1c2ccc(C#Cc3ccccc3)cc2CCN1CCN1CCC1`
a: f

q: One more compound: `O=C1c2ccc(C#Cc3ccccc3)cc2CCN1CCN1CCOCC1`
a: t
